Task for the reader: assign each of the following compounds its reported Papp A→B at 2 h, 10 μM.
Experimental Protocol: Absorption & efflux: Caco-2 permeability
Recorded Conditions: human, Caco-2, Mean Papp A-B (10^−6 cm/s), 10 μM, 2 hrs
Report the figure in ×10⁻⁶ cm/s without appending any unit label.

Papp A→B at 2 h, 10 μM in this record for "CNS(=O)(=O)Nc1cccc(Cc2c(CNCC#N)c3ccc(OC(=O)N(C)C)cc3oc2=O)c1F" : 3.59

Papp A→B at 2 h, 10 μM measured on "CNS(=O)(=O)Nc1cccc(Cc2c(CN3CCN(Cc4ccccc4)CC3)c3ccc(OC(=O)N(C)C)cc3oc2=O)c1F" = 7.55

// recorded Papp A→B at 2 h, 10 μM for "C#CCNCc1c(Cc2cccc(NS(=O)(=O)NC)c2F)c(=O)oc2cc(OC(=O)N(C)C)ccc12" : 9.34

The reported Papp A→B at 2 h, 10 μM of the compound "CNS(=O)(=O)Nc1cccc(Cc2c(CNc3ccn[nH]3)c3ccc(OC(=O)N(C)C)cc3oc2=O)c1F" was 1.06

Recorded Papp A→B at 2 h, 10 μM (compound "CNS(=O)(=O)Nc1cccc(Cc2c(CNC3CC3)c3ccc(OC(=O)N(C)C)cc3oc2=O)c1F" ): 9.18

Measured Papp A→B at 2 h, 10 μM of "CNS(=O)(=O)Nc1cccc(Cc2c(CN(C)C)c3ccc(OC(=O)N(C)C)cc3oc2=O)c1F" : 13

# Papp A→B at 2 h, 10 μM (compound: "CNS(=O)(=O)Nc1cccc(Cc2c(CN3CCN(C)CC3)c3ccc(OC(=O)N(C)C)cc3oc2=O)c1F" ) is 1.19

"CNS(=O)(=O)Nc1cccc(Cc2c(CN3CCNCC3)c3ccc(OC(=O)N(C)C)cc3oc2=O)c1F" has a reported Papp A→B at 2 h, 10 μM of 0.0676

* * *

Experimental Protocol: Single dose PK profile (plasma and tumor) in Colon26 tumor bearing mice
Assay type: in vivo
Recorded Conditions: female, mouse, po, 100 mg/kg; tumor; 100 mpk p.o.
Hi there, I'd appreciate the recorded AUC(0-t) for every entry that follows.
# value in ng·h/mL; strip the unit string

// sample "CNS(=O)(=O)Nc1cccc(Cc2c(CN3CCC3)c3ccc(OC(=O)N(C)C)cc3oc2=O)c1F" , its AUC(0-t) was 36900

What the record says about "CNS(=O)(=O)Nc1cccc(Cc2c(CN(C)C)c3ccc(OC(=O)N(C)C)cc3oc2=O)c1F" : AUC(0-t) is 51700

* * *

Experimental Protocol: Single dose PK profile (plasma and tumor) in Colon26 tumor bearing mice
Format: in vivo
Recorded Conditions: female, mouse, po, 100 mg/kg; tumor; 100 mpk p.o.
Quantity Measured: AUC(0-inf) (ng·h/mL)
Give just the number in ng·h/mL; leave the unit off.

# AUC(0-inf) (compound: "CNS(=O)(=O)Nc1cccc(Cc2c(CN(C)C)c3ccc(OC(=O)N(C)C)cc3oc2=O)c1F" ) is 51700

Sure, the documented AUC(0-inf) for "CNS(=O)(=O)Nc1cccc(Cc2c(CN3CCC3)c3ccc(OC(=O)N(C)C)cc3oc2=O)c1F" is 37100

* * *

Experimental Protocol: Plasma stability, beagle dog
Type: in vitro ADME
Recorded Conditions: 2 μM
Quantity Measured: Beagle Dog (% Reamining @2 hour) (%)
Quick reminder: number only, in %, skip the unit.

The compound listed as "CNS(=O)(=O)Nc1cccc(Cc2c(CN3CCNCC3)c3ccc(OC(=O)N(C)C)cc3oc2=O)c1F" shows Beagle Dog (% Reamining @2 hour) equal to 96.2

Record summary for "CC(C)[N+](C)(CCOC(=O)C1c2ccccc2Oc2ccccc21)C(C)C" : reported Beagle Dog (% Reamining @2 hour) = 58.4

"CNS(=O)(=O)Nc1cccc(Cc2c(C)c3ccc(OC(=O)N(C)C)cc3oc2=O)c1F" has a reported Beagle Dog (% Reamining @2 hour) of 99.8

The compound listed as "CNS(=O)(=O)Nc1cccc(Cc2c(CNCC#N)c3ccc(OC(=O)N(C)C)cc3oc2=O)c1F" shows Beagle Dog (% Reamining @2 hour) equal to 95.9

Looking up "CNS(=O)(=O)Nc1cccc(Cc2c(CN(C)C)c3ccc(OC(=O)N(C)C)cc3oc2=O)c1F" , I found its Beagle Dog (% Reamining @2 hour) recorded as 96.8

Quick note, Beagle Dog (% Reamining @2 hour) for CNS(=O)(=O)Nc1nccc(Cc2c(C)c3ccc(Oc4ncccn4)cc3oc2=O)c1F [Reference 2, reference compound] landed at 99.8

Lab note: measured Beagle Dog (% Reamining @2 hour) of "CNS(=O)(=O)Nc1cccc(Cc2c(CNC3CC3)c3ccc(OC(=O)N(C)C)cc3oc2=O)c1F" was 97.8

Briefly, Beagle Dog (% Reamining @2 hour) measured for "CNS(=O)(=O)Nc1cccc(Cc2c(CN3CCN(Cc4ccccc4)CC3)c3ccc(OC(=O)N(C)C)cc3oc2=O)c1F" : 101.2

Briefly, Beagle Dog (% Reamining @2 hour) measured for "CC[C@H](C)C(=O)O[C@H]1C[C@@H](C)C=C2C=C[C@H](C)[C@H](CC[C@@H]3C[C@@H](O)CC(=O)O3)[C@H]21" : 94.1

Input "CNS(=O)(=O)Nc1cccc(Cc2c(CN3CCN(C)CC3)c3ccc(OC(=O)N(C)C)cc3oc2=O)c1F" . Output Beagle Dog (% Reamining @2 hour): 89.1

Data point: Cn1cnc2c(F)c(Nc3ccc(Br)cc3Cl)c(C(=O)NOCCO)cc21 [Reference 1, Selumetinib, reference compound] ; Beagle Dog (% Reamining @2 hour) = 100.4

Value of Beagle Dog (% Reamining @2 hour) reported for the compound "CNS(=O)(=O)Nc1cccc(Cc2c(CNc3ccn[nH]3)c3ccc(OC(=O)N(C)C)cc3oc2=O)c1F" is 102.6

get_value(item= "C#CCNCc1c(Cc2cccc(NS(=O)(=O)NC)c2F)c(=O)oc2cc(OC(=O)N(C)C)ccc12" , readout=Beagle Dog (% Reamining @2 hour)) returns 91.2

* * *

Experimental Protocol: Single dose PK profile (plasma and tumor) in Colon26 tumor bearing mice
Type: in vivo
Recorded Conditions: female, mouse, iv, 25 mg/kg; plasma; 25 mpk i.v.
Give measured Cmax for each item. Keep answers brief.
Your answer is read as ng/mL, so omit the unit and give the number.

The reported Cmax of the compound "CNS(=O)(=O)Nc1cccc(Cc2c(CN3CCC3)c3ccc(OC(=O)N(C)C)cc3oc2=O)c1F" was 10900

The recorded Cmax for "CNS(=O)(=O)Nc1cccc(Cc2c(CN(C)C)c3ccc(OC(=O)N(C)C)cc3oc2=O)c1F" is 6520

* * *

Experimental System: CYP450 3A4 (Homo sapiens)
Sequence (P08684 whole entry): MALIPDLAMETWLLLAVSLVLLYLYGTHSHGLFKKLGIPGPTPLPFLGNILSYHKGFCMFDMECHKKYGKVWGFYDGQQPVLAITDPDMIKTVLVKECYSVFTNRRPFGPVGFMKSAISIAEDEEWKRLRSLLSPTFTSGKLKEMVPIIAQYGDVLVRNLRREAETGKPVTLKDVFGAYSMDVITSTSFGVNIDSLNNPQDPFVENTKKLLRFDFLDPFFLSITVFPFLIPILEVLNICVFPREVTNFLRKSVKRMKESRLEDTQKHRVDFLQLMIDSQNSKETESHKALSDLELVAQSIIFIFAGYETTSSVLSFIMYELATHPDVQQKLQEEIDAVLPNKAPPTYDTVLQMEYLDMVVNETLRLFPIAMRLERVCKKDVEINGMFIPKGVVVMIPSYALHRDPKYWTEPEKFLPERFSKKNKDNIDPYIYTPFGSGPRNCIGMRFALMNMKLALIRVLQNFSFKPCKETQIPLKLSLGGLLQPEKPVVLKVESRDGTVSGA
Experimental Protocol: CYP450 panel, 3A4
Recorded Conditions: 10 μM; substrate testosterone
Okay, here is how we bin by 3A4^: low-valued (below 20), mid-valued (20 to below 40), high-valued (40 or more)

Inquiry: Band of "CNS(=O)(=O)Nc1cccc(Cc2c(CNc3ccn[nH]3)c3ccc(OC(=O)N(C)C)cc3oc2=O)c1F" ?
Reply text: mid-valued

Inquiry: Bin this entry: "CNS(=O)(=O)Nc1cccc(Cc2c(C)c3ccc(OC(=O)N(C)C)cc3oc2=O)c1F"
Reply text: high-valued

Inquiry: // bin(item) where item = Cn1cnc2c(F)c(Nc3ccc(Br)cc3Cl)c(C(=O)NOCCO)cc21 [Reference 1, Selumetinib, reference compound]
Reply text: mid-valued

Inquiry: # bin lookup: classify "CNS(=O)(=O)Nc1cccc(Cc2c(CN3CCNCC3)c3ccc(OC(=O)N(C)C)cc3oc2=O)c1F" by its 3A4^
Reply text: low-valued

Inquiry: Which of the defined bands does the recorded 3A4^ of "CNS(=O)(=O)Nc1cccc(Cc2c(CNCC#N)c3ccc(OC(=O)N(C)C)cc3oc2=O)c1F" sit within?
Reply text: mid-valued

Inquiry: Input CNS(=O)(=O)Nc1nccc(Cc2c(C)c3ccc(Oc4ncccn4)cc3oc2=O)c1F [Reference 2, reference compound] ; output its category
Reply text: low-valued

Inquiry: For the record "CNS(=O)(=O)Nc1cccc(Cc2c(CN3CCN(Cc4ccccc4)CC3)c3ccc(OC(=O)N(C)C)cc3oc2=O)c1F" , report the class its 3A4^ corresponds to.
Reply text: high-valued

Inquiry: Form: Item = "CNS(=O)(=O)Nc1cccc(Cc2c(CNC3CC3)c3ccc(OC(=O)N(C)C)cc3oc2=O)c1F" ; Class = ?
Reply text: high-valued

Inquiry: Any idea which band "CNS(=O)(=O)Nc1cccc(Cc2c(CN(C)C)c3ccc(OC(=O)N(C)C)cc3oc2=O)c1F" is in?
Reply text: mid-valued

* * *

For each of the compounds below, state its activity at 10 µM.
System: A549 pERK
Experimental Protocol: A549-pERK, 2 h (quantitative Western, Jess)
Format: cell-based
Recorded Conditions: Homo sapiens, A549, 2 h, 10 uM, phospho:total ratio normalized to DMSO control
# value in %; strip the unit string

# activity at 10 µM of "CNS(=O)(=O)Nc1cccc(Cc2c(CNCC(=O)N3CCNCC3)c3ccc(OC(=O)N(C)C)cc3oc2=O)c1F" = 8.6

Entry "C#CCNC(=O)CNCc1c(Cc2cccc(NS(=O)(=O)NC)c2F)c(=O)oc2cc(OC(=O)N(C)C)ccc12" , activity at 10 µM reported as 9.46

Short answer for "CNS(=O)(=O)Nc1cccc(Cc2c(CNC(N)=O)c3ccc(OC(=O)N(C)C)cc3oc2=O)c1F" : activity at 10 µM was 7.39

According to the records, this compound "CNS(=O)(=O)Nc1cccc(Cc2c(CNC(=O)c3c[nH]nn3)c3ccc(OC(=O)N(C)C)cc3oc2=O)c1F" displays activity at 10 µM of 70.8

activity at 10 µM recorded for this compound, "CNS(=O)(=O)Nc1cccc(Cc2c(CNC(=O)C(C)C)c3ccc(OC(=O)N(C)C)cc3oc2=O)c1F" , is 23.6

For this compound ( "CNS(=O)(=O)Nc1cccc(Cc2c(CC(=O)N3CC(OC)C3)c3ccc(OC(=O)N(C)C)cc3oc2=O)c1F" ), measured activity at 10 µM is 4.51

Documented activity at 10 µM of "CNS(=O)(=O)Nc1cccc(Cc2c(CNC(=O)C(C)(C)O)c3ccc(OC(=O)N(C)C)cc3oc2=O)c1F" : 13

The compound "CNS(=O)(=O)Nc1cccc(Cc2c(CC(=O)NC3CCOCC3)c3ccc(OC(=O)N(C)C)cc3oc2=O)c1F" showed activity at 10 µM equal to 11.8

Item: "CNS(=O)(=O)Nc1cccc(Cc2c(CNCC(=O)N(C)c3ccccc3)c3ccc(OC(=O)N(C)C)cc3oc2=O)c1F" | activity at 10 µM: 4.28

// "CNS(=O)(=O)Nc1cccc(Cc2c(CNCC(=O)Nc3ccccc3)c3ccc(OC(=O)N(C)C)cc3oc2=O)c1F" : activity at 10 µM value = 3.04

For reference, reported activity at 10 µM for "CNS(=O)(=O)Nc1cccc(Cc2c(CN3CCOCC3=O)c3ccc(OC(=O)N(C)C)cc3oc2=O)c1F" stands at 22.2

Entry "CCC(=O)NCc1c(Cc2cccc(NS(=O)(=O)NC)c2F)c(=O)oc2cc(OC(=O)N(C)C)ccc12" — recorded activity at 10 µM = 11.3

activity at 10 µM in this record for "CNS(=O)(=O)Nc1cccc(Cc2c(CNC(=O)OCCO)c3ccc(OC(=O)N(C)C)cc3oc2=O)c1F" : 27.9
